TEST_NAME: in vivo
APPLIED_CONDITIONS: Sprague-Dawley, rat, po, 10 mg/kg
Item-by-item account of bioavailability
Provide the reading as a plain figure in %.

Examples with answers:
MOLECULE	OUTPUT_UNIT	bioavailability
O=C(C[C@@H]1C(=O)NCCN1S(=O)(=O)c1ccc(Cl)cc1)N[C@@H]1CCCc2cc(CN3CCCCC3)ccc21	%	19
Cc1ccc(S(=O)(=O)N2CCNC(=O)[C@H]2CC(=O)N[C@@H]2CCCc3cc(CNC(C)(C)C)ccc32)cc1	%	0.3
Cc1ccc(S(=O)(=O)N2CCNC(=O)[C@H]2CC(=O)N[C@@H]2CCCc3cc(CN4CCCCC4)ccc32)cc1	%	6

Switching to the query record.
So what's the measured bioavailability for this one? Cc1ccc(S(=O)(=O)N2CCNC(=O)[C@H]2CC(=O)N[C@@H]2CCCc3cc(CNCC(C)(C)C)ccc32)cc1 16
